// reported viability, T/C per item
System: 276233-004-R-J1-PDC KRAS spheroids with HUVEC/MSC, viability
Assay: Anticancer human tumor 276233-004-R-J1-PDC patient-derived colon adenocarcinoma cell line growth inhibition [KRAS2]
Settings: second compound 10 µM; first compound 10 µM; hits give low values
Use % as the unit, but write only the number.

Some compounds with known viability, T/C results, for comparison:
compound	observed.measurement
O=C(c1cc(Cc2n[nH]c(=O)c3ccccc23)ccc1F)N1CCN(C(=O)C2CC2)CC1 + COc1cc2nc(C)nc(NC(C)c3cc(N)cc(C(F)(F)F)c3)c2cc1OC1CCOC1	21.6
CC1OCC2(CCN(c3cnc(Sc4ccnc(N)c4Cl)c(N)n3)CC2)C1N (stereo not drawn) + CNCc1ccccc1-c1csc(C(C)Nc2nc(C)nc3cc(OC)c(OC)cc23)c1	5.87

Input line: Report viability, T/C for COC(=O)c1ccc2c(C(=Nc3ccc(N(C)C(=O)CN4CCN(C)CC4)cc3)c3ccccc3)c(O)[nH]c2c1 + CNCc1ccccc1-c1csc(C(C)Nc2nc(C)nc3cc(OC)c(OC)cc23)c1 please.
Output line: 0.53

###

In this section we review reported viability, T/C values for a set of compounds.
Tested on: 276233-004-R-J1-PDC KRAS spheroids with HUVEC/MSC, viability
Experiment: Anticancer human tumor 276233-004-R-J1-PDC cell line growth inhibition [KRAS2];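 also: cells exposed to agents for seven days before viability read; 100% = DMSO vehicle control wells and lower values mean fewer viable cells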
Conditions: second compound 0.1 µM; first compound 10 µM; hits give low values
Description: Multicellular complex tumor spheroid response to RAS pathway inhibitors in combination with a targeted agents in patient-derived cell lines with oncogenic KRAS variants from multiple cancer types A high-throughput screen of multi-cell type tumor spheroids was designed to identify active combinations of targeted small molecules and KRAS pathway inhibitors. […] Compounds. […] If the clinical Cmax for an agent had not been determined, the highest concentration tested was 10 microM. […]
Quick reminder: number only, in %, skip the unit.

Here is how some compounds turned out for viability, T/C.
compound	viability, T/C, %
COc1cc2nccc(Oc3ccc(NC(=O)C4(C(=O)Nc5ccc(F)cc5)CC4)cc3)c2cc1OC + C=CC(=O)N1CCN(c2nc(OCC3CCCN3C)nc3c2CCN(c2cccc4cccc(C)c24)C3)CC1CC#N	70.6
COc1cc(Nc2ncc3c(n2)-c2ccc(Cl)cc2C(c2c(F)cccc2OC)=NC3)ccc1C(=O)O + C=CC(=O)N1CCN(c2nc(=O)n(-c3c(C)ccnc3C(C)C)c3nc(-c4c(O)cccc4F)c(F)cc23)C(C)C1	88.3
CC1(C)CCC(CN2CCN(c3ccc(C(=O)NS(=O)(=O)c4ccc(NCC5CCOCC5)c([N+](=O)[O-])c4)c(Oc4cnc5[nH]ccc5c4)c3)CC2)=C(c2ccc(Cl)cc2)C1 + C=CC(=O)N1CCN(c2nc(=O)n(-c3c(C)ccnc3C(C)C)c3nc(-c4c(O)cccc4F)c(F)cc23)C(C)C1	44.9
CCNC(=O)CC1N=C(c2ccc(Cl)cc2)c2cc(OC)ccc2-n2c(C)nnc21 (stereo not given) + C=CC(=O)N1CCN(c2nc(OCC3CCCN3C)nc3c2CCN(c2cccc4cccc(C)c24)C3)CC1CC#N	62.3
COc1cc2nccc(Oc3ccc(NC(=O)C4(C(=O)Nc5ccc(F)cc5)CC4)cc3)c2cc1OC + CC1OCC2(CCN(c3cnc(Sc4ccnc(N)c4Cl)c(N)n3)CC2)C1N	77.6

Input line: Returns the measured viability, T/C for the input compound. Input: COc1cc(Nc2ncc3c(n2)-c2ccc(Cl)cc2C(c2c(F)cccc2OC)=NC3)ccc1C(=O)O + CNCc1ccccc1-c1csc(C(C)Nc2nc(C)nc3cc(OC)c(OC)cc23)c1
Output line: 84.2

Input line: Record: CC1(C)CCC(CN2CCN(c3ccc(C(=O)NS(=O)(=O)c4ccc(NCC5CCOCC5)c([N+](=O)[O-])c4)c(Oc4cnc5[nH]ccc5c4)c3)CC2)=C(c2ccc(Cl)cc2)C1 + CNCc1ccccc1-c1csc(C(C)Nc2nc(C)nc3cc(OC)c(OC)cc23)c1
Output line: 67.3

Input line: Thanks! And CC1OCC2(CCN(c3cnc(Sc4ccnc(N)c4Cl)c(N)n3)CC2)C1N (stereo not given) + C=CC(=O)N1CCN(c2nc(OCC3CCCN3C)nc3c2CCN(c2cccc4cccc(C)c24)C3)CC1CC#N ?
Output line: 56.3

Input line: Likewise for CC(C)NCC(C(=O)N1CCN(c2ncnc3c2C(C)CC3O)CC1)c1ccc(Cl)cc1 (stereo not given) + CNCc1ccccc1-c1csc(C(C)Nc2nc(C)nc3cc(OC)c(OC)cc23)c1 ?
Output line: 53.6

Input line: Also COc1cc2nccc(Oc3ccc(NC(=O)C4(C(=O)Nc5ccc(F)cc5)CC4)cc3)c2cc1OC + CNCc1ccccc1-c1csc(C(C)Nc2nc(C)nc3cc(OC)c(OC)cc23)c1 , if possible.
Output line: 88.2

Input line: Try Cn1nccc1Nc1nccc(-c2cc3c(s2)C(C)(C)N(CCN2CCOCC2)C3=O)n1 + CNCc1ccccc1-c1csc(C(C)Nc2nc(C)nc3cc(OC)c(OC)cc23)c1 next.
Output line: 49.4

Input line: Now the same for Cn1nccc1Nc1nccc(-c2cc3c(s2)C(C)(C)N(CCN2CCOCC2)C3=O)n1 + CC1OCC2(CCN(c3cnc(Sc4ccnc(N)c4Cl)c(N)n3)CC2)C1N
Output line: 47

Input line: Also Cn1nccc1Nc1nccc(-c2cc3c(s2)C(C)(C)N(CCN2CCOCC2)C3=O)n1 + COc1cc2nc(C)nc(NC(C)c3cc(N)cc(C(F)(F)F)c3)c2cc1OC1CCOC1 , if possible.
Output line: 33.8

Input line: Likewise for COc1cc(Nc2ncc3c(n2)-c2ccc(Cl)cc2C(c2c(F)cccc2OC)=NC3)ccc1C(=O)O + C=CC(=O)N1CCN(c2nc(OCC3CCCN3C)nc3c2CCN(c2cccc4cccc(C)c24)C3)CC1CC#N ?
Output line: 81

Input line: Cool, now O=C(c1cc(Cc2n[nH]c(=O)c3ccccc23)ccc1F)N1CCN(C(=O)C2CC2)CC1 + C=CC(=O)N1CCN(c2nc(=O)n(-c3c(C)ccnc3C(C)C)c3nc(-c4c(O)cccc4F)c(F)cc23)C(C)C1
Output line: 71.8

Input line: And COC(=O)c1ccc2c(C(=Nc3ccc(N(C)C(=O)CN4CCN(C)CC4)cc3)c3ccccc3)c(O)[nH]c2c1 + CNCc1ccccc1-c1csc(C(C)Nc2nc(C)nc3cc(OC)c(OC)cc23)c1 ?
Output line: 70.1

Input line: Please answer likewise for CC(C)NCC(C(=O)N1CCN(c2ncnc3c2C(C)CC3O)CC1)c1ccc(Cl)cc1 (stereo not given) + C=CC(=O)N1CCN(c2nc(OCC3CCCN3C)nc3c2CCN(c2cccc4cccc(C)c24)C3)CC1CC#N
Output line: 76.9

Input line: Try the compound CC1(C)CCC(CN2CCN(c3ccc(C(=O)NS(=O)(=O)c4ccc(NCC5CCOCC5)c([N+](=O)[O-])c4)c(Oc4cnc5[nH]ccc5c4)c3)CC2)=C(c2ccc(Cl)cc2)C1 + C=CC(=O)N1CCN(c2nc(OCC3CCCN3C)nc3c2CCN(c2cccc4cccc(C)c24)C3)CC1CC#N
Output line: 61.4

Input line: Would you mind doing CC1OCC2(CCN(c3cnc(Sc4ccnc(N)c4Cl)c(N)n3)CC2)C1N (stereo not given) + C=CC(=O)N1CCN(c2nc(=O)n(-c3c(C)ccnc3C(C)C)c3nc(-c4c(O)cccc4F)c(F)cc23)C(C)C1 as well?
Output line: 69.9

Input line: # iterate: CC(C)NCC(C(=O)N1CCN(c2ncnc3c2C(C)CC3O)CC1)c1ccc(Cl)cc1 (stereo not given) + COc1cc2nc(C)nc(NC(C)c3cc(N)cc(C(F)(F)F)c3)c2cc1OC1CCOC1
Output line: 51.2

###

Test system: 276233-004-R-J1-PDC KRAS spheroids with HUVEC/MSC, viability
Experiment: Anticancer human tumor 276233-004-R-J1-PDC cell line growth inhibition [KRAS2]; active means viability on the fitted dose curve at most 10% of control; inactive means the rest;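 also: cells exposed to agents for seven days before viability read; 100% = DMSO vehicle control wells and lower values mean fewer viable cells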
Settings: second compound 10 µM; first compound 0.316 µM
Outcomes you can answer with include only these: 1.0 = active, 0.0 = inactive

compound	group
Cn1nccc1Nc1nccc(-c2cc3c(s2)C(C)(C)N(CCN2CCOCC2)C3=O)n1 + C=CC(=O)N1CCN(c2nc(=O)n(-c3c(C)ccnc3C(C)C)c3nc(-c4c(O)cccc4F)c(F)cc23)C(C)C1	0.0

Input line: Just curious, what result did COC(=O)c1ccc2c(C(=Nc3ccc(N(C)C(=O)CN4CCN(C)CC4)cc3)c3ccccc3)c(O)[nH]c2c1 + CC1OCC2(CCN(c3cnc(Sc4ccnc(N)c4Cl)c(N)n3)CC2)C1N get here?
Output line: 0.0

###

Tested on: 276233-004-R-J1-PDC KRAS spheroids with HUVEC/MSC, viability
Assay: Anticancer human tumor 276233-004-R-J1-PDC cell line growth inhibition [KRAS2];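 also: cells exposed to agents for seven days before viability read; 100% = DMSO vehicle control wells and lower values mean fewer viable cells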
Details: second compound 3.16 µM; first compound 0.1 µM; hits give low values
experimental.readout: viability, T/C

Input line: What value of viability, T/C has been reported for the following compound? Cn1nccc1Nc1nccc(-c2cc3c(s2)C(C)(C)N(CCN2CCOCC2)C3=O)n1 + C=CC(=O)N1CCN(c2nc(=O)n(-c3c(C)ccnc3C(C)C)c3nc(-c4c(O)cccc4F)c(F)cc23)C(C)C1
Output line: 122%

Input line: Cool, now O=C(c1cc(Cc2n[nH]c(=O)c3ccccc23)ccc1F)N1CCN(C(=O)C2CC2)CC1 + C=CC(=O)N1CCN(c2nc(=O)n(-c3c(C)ccnc3C(C)C)c3nc(-c4c(O)cccc4F)c(F)cc23)C(C)C1
Output line: 98.1%

Input line: Continue with CC(C)n1nc(-c2ccc3oc(N)nc3c2)c2c(N)ncnc21 + CNCc1ccccc1-c1csc(C(C)Nc2nc(C)nc3cc(OC)c(OC)cc23)c1
Output line: 0.88%

Input line: Query CCN1CCN(Cc2ccc(Nc3ncc(F)c(-c4cc(F)c5nc(C)n(C(C)C)c5c4)n3)nc2)CC1 + CNCc1ccccc1-c1csc(C(C)Nc2nc(C)nc3cc(OC)c(OC)cc23)c1 next
Output line: 0.41%

Input line: # repeat for CC(C)NCC(C(=O)N1CCN(c2ncnc3c2C(C)CC3O)CC1)c1ccc(Cl)cc1 (stereo not given) + C=CC(=O)N1CCN(c2nc(=O)n(-c3c(C)ccnc3C(C)C)c3nc(-c4c(O)cccc4F)c(F)cc23)C(C)C1
Output line: 103%

Input line: Continue with Cn1ncnc1[C@H]1c2n[nH]c(=O)c3cc(F)cc(c23)N[C@@H]1c1ccc(F)cc1 + CNCc1ccccc1-c1csc(C(C)Nc2nc(C)nc3cc(OC)c(OC)cc23)c1
Output line: 0.74%

Input line: Proceed to CC(C)NCC(C(=O)N1CCN(c2ncnc3c2C(C)CC3O)CC1)c1ccc(Cl)cc1 (stereo not given) + CNCc1ccccc1-c1csc(C(C)Nc2nc(C)nc3cc(OC)c(OC)cc23)c1
Output line: 0.54%

Input line: // same read-out, input: O=C(c1cc(Cc2n[nH]c(=O)c3ccccc23)ccc1F)N1CCN(C(=O)C2CC2)CC1 + CC1OCC2(CCN(c3cnc(Sc4ccnc(N)c4Cl)c(N)n3)CC2)C1N
Output line: 52.8%

Input line: Same thing, different compound: COc1cc2nccc(Oc3ccc(NC(=O)C4(C(=O)Nc5ccc(F)cc5)CC4)cc3)c2cc1OC + C=CC(=O)N1CCN(c2nc(OCC3CCCN3C)nc3c2CCN(c2cccc4cccc(C)c24)C3)CC1CC#N
Output line: 63.4%

Input line: Do the same for COC(=O)c1ccc2c(C(=Nc3ccc(N(C)C(=O)CN4CCN(C)CC4)cc3)c3ccccc3)c(O)[nH]c2c1 + COc1cc2nc(C)nc(NC(C)c3cc(N)cc(C(F)(F)F)c3)c2cc1OC1CCOC1 please
Output line: 66.6%

Input line: Repeat for the following compound: CN(C)C/C=C/C(=O)Nc1cc2c(Nc3ccc(F)c(Cl)c3)ncnc2cc1O[C@H]1CCOC1 + COc1cc2nc(C)nc(NC(C)c3cc(N)cc(C(F)(F)F)c3)c2cc1OC1CCOC1
Output line: 66.3%

Input line: Then this compound: COC(=O)c1ccc2c(C(=Nc3ccc(N(C)C(=O)CN4CCN(C)CC4)cc3)c3ccccc3)c(O)[nH]c2c1 + CNCc1ccccc1-c1csc(C(C)Nc2nc(C)nc3cc(OC)c(OC)cc23)c1
Output line: 4.5%

Input line: Okay, and CC(C)NCC(C(=O)N1CCN(c2ncnc3c2C(C)CC3O)CC1)c1ccc(Cl)cc1 (stereo not given) + COc1cc2nc(C)nc(NC(C)c3cc(N)cc(C(F)(F)F)c3)c2cc1OC1CCOC1 ?
Output line: 75.6%

Input line: Now the same for CC(=O)OC12COC1CC(O)C1(C)C(=O)C(O)C3=C(C)C(OC(=O)C(O)C(NC(=O)OC(C)(C)C)c4ccccc4)CC(O)(C(OC(=O)c4ccccc4)C21)C3(C)C (stereo not given) + C=CC(=O)N1CCN(c2nc(=O)n(-c3c(C)ccnc3C(C)C)c3nc(-c4c(O)cccc4F)c(F)cc23)C(C)C1
Output line: 77.8%

Recorded values, source PubChem BioAssay AID1963873.
